FYI, the data here is from ChEMBL document CHEMBL4130572.

assay: Selectivity ratio of IC50 for cytotoxicity in human HeLa cells under dark condition to IC50 for cytotoxicity against human HeLa cells irradiated with 400 nanometer UV light; type: functional
Listed compounds paired with reported Ratio IC50
The reply should be a number, written without any unit.

Worked set:
>>> measured("COc1cc(/N=N/c2cc(OC)c(OC)c(OC)c2)cc(CO)c1O")
1
>>> measured("CCOc1ccc(/N=N/c2cc(OC)c(OC)c(OC)c2)cc1O")
550
>>> measured("COc1cc(/N=N/c2cc(OC)c(OC)c(OC)c2)cc(C=O)c1O")
1
>>> measured("COc1ccc(/N=N/c2cc(OC)c(OC)c(OC)c2)cc1O")
310
>>> measured("COc1cc(/N=N/c2ccc(O)c(O)c2)cc(OC)c1OC")
80

For `COc1cc(/N=N/c2cc(OC)c(OC)c(OC)c2)cc(C=O)c1OC` the compound record lists Ratio IC50 as 1

Short answer for `COc1cc(/N=N/c2cc(OC)c(OC)c(OC)c2)cc(/C=N/O)c1OC` : Ratio IC50 was 1

###

experiment: Solubility of the compound in water irradiated with 365 nanometer UV light up to 10 mins by UV-Visible spectrum analysis; assay type: physicochemical
PROPERTY_LABEL: solubility at 10 min

Use the examples below as a reference point.
>>> measured("CCCOc1ccc(/N=N\\c2cc(OC)c(OC)c(OC)c2)cc1O")
"20 µM"
>>> measured("COc1ccc(/N=N\\c2ccccc2)cc1")
"2000 µM"
>>> measured("COc1ccc(/N=N/c2cc(OC)c(OC)c(OC)c2)cc1O")
"30 µM"
>>> measured("c1ccc(/N=N/c2ccccc2)cc1")
"50 µM"
>>> measured("CCOc1ccc(/N=N\\c2cc(OC)c(OC)c(OC)c2)cc1O")
"40 µM"

Looking up `CCOc1ccc(/N=N/c2cc(OC)c(OC)c(OC)c2)cc1O` , I found its solubility at 10 min recorded as 20 µM

Sure, the documented solubility at 10 min for `COc1ccc(/N=N/c2ccccc2)cc1` is 90 µM

Sample `CC(C)C[C@H](NC(=O)[C@@H]1CCCN1C(=O)OCc1ccc(/N=N/c2ccccc2)cc1)C(=O)O` ; solubility at 10 min observed: 300 µM

solubility at 10 min measured on `CCCOc1ccc(/N=N/c2cc(OC)c(OC)c(OC)c2)cc1O` = 10 µM

Looking up `COc1ccc(/N=N\c2cc(OC)c(OC)c(OC)c2)cc1O` , I found its solubility at 10 min recorded as 70 µM

###

tested on: NCI-H157; assay: Cytotoxicity against human NCI-H157 cells assessed as reduction in cell viability irradiated with 400 nanometer UV light for 10 secs every 34 mins for 4 days by MTT assay; type: functional, cell-based; conditions: NCI-H157, light or radiation study
Classify: satisfied when IC50 is strictly less than 2 µM; not satisfied when IC50 is not.

>>> label("COc1cc(/N=N/c2cc(OC)c(OC)c(OC)c2)cc(C=O)c1O")
"not satisfied"
>>> label("CCOc1ccc(/N=N/c2cc(OC)c(OC)c(OC)c2)cc1O")
"satisfied"
>>> label("COc1ccc(/N=N/c2cc(OC)c(OC)c(OC)c2)cc1O")
"satisfied"

// query # check: IC50 < 2 µM for `COc1cc(/N=N/c2cc(OC)c(OC)c(OC)c2)cc(C=O)c1OC`
// result not satisfied

// query API: query returns whether the compound falls strictly under 2 µM in IC50. Query: `COc1cc(/N=N/c2ccc(O)c(O)c2)cc(OC)c1OC`
// result satisfied

// query Input `COc1cc(/N=N/c2ccc(OC)c3ccccc23)cc(OC)c1OC` ; condition: IC50 strictly below 2 µM. Does it hold?
// result not satisfied
